Reference source for all entries: paper PMC3517154

Target: PPARγ (Homo sapiens)
Test: Cell-based PPARγ transactivation assay
Details: read-out: Cell-based EC50; Cos-1 cells, 3xPPRE luciferase reporter, full-length PPARγ, 24 h, dose-response
Give pEC50 for every item shown.
// field semantics: pEC50 = negative decimal log of concentration (mol/L)

Problem: What value of pEC50 on PPARγ (Homo sapiens) does CC(=O)N1N=C(c2ccccc2)CC1c1cn(Cc2ccccc2)c2ccccc12 (stereo not drawn) have?
Result: 5.92

Problem: And then `COc1ccc(-c2nn(-c3ccccc3)cc2/C=C2/SC(=S)N(CCC(=O)O)C2=O)c(C)c1` , what is it?
Result: 6.55

Problem: Same again, this time with COc1ccc2nc(N3C(=O)C(O)=C(C(=O)c4ccco4)C3c3ccc(C)o3)sc2c1 (stereo not drawn)
Result: 5.30

Problem: Now the same for CCOc1ccc2nc(N3C(=O)C(O)=C(C(=O)c4ccco4)C3c3ccco3)sc2c1 (stereo not drawn)
Result: 5.92

Problem: Similarly, `CCn1cnc2c1c(=O)n(Cc1cccc([N+](=O)[O-])c1)c(=O)n2Cc1ccccc1` ?
Result: 6.74

Problem: Now give it for Cc1ccc2nc(N3C(=O)C(O)=C(C(=O)c4ccc(C)o4)C3c3ccco3)sc2c1 (stereo not drawn) too.
Result: 4.74

* * *

What IC50 was measured for each of the following?
Biological target: PPARγ LBD (Homo sapiens)
Sequence (P37231 238-503 limits assumed): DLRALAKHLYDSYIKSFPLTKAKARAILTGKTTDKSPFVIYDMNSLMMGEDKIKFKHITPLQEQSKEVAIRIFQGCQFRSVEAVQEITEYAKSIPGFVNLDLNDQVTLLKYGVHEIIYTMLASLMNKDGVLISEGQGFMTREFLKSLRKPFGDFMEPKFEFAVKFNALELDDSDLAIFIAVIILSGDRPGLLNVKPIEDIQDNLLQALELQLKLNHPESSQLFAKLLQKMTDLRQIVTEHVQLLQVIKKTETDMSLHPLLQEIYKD
Experiment: Fluorescence polarization
Conditions: read-out: FP Assay IC50; recombinant PPARγ LBD, 5 nM Fluoromone Green ligand, 25°C, 2 hours
Answer in nM, number only, no unit symbol.

Problem: For the compound Cc1ccc2nc(N3C(=O)C(O)=C(C(=O)c4ccc(C)o4)C3c3ccco3)sc2c1 (stereo not drawn) , what IC50 is on record?
Result: 22000

Problem: Repeat for the following compound: `COc1ccc(-c2nn(-c3ccccc3)cc2/C=C2/SC(=S)N(CCC(=O)O)C2=O)c(C)c1`
Result: 152

Problem: Please answer likewise for CCOc1ccc2nc(N3C(=O)C(O)=C(C(=O)c4ccco4)C3c3ccco3)sc2c1 (stereo not drawn)
Result: 3000

Problem: Now consider COc1ccc2nc(N3C(=O)C(O)=C(C(=O)c4ccco4)C3c3ccc(C)o3)sc2c1 (stereo not drawn) and answer again.
Result: 5000

Problem: Thanks! And `CCn1cnc2c1c(=O)n(Cc1cccc([N+](=O)[O-])c1)c(=O)n2Cc1ccccc1` ?
Result: 173

Problem: Another compound: CC(=O)N1N=C(c2ccccc2)CC1c1cn(Cc2ccccc2)c2ccccc12 (stereo not drawn)
Result: 2000

* * *

Target: PPARγ (Homo sapiens, UniProt P37231)
Sequence (P37231 1-505): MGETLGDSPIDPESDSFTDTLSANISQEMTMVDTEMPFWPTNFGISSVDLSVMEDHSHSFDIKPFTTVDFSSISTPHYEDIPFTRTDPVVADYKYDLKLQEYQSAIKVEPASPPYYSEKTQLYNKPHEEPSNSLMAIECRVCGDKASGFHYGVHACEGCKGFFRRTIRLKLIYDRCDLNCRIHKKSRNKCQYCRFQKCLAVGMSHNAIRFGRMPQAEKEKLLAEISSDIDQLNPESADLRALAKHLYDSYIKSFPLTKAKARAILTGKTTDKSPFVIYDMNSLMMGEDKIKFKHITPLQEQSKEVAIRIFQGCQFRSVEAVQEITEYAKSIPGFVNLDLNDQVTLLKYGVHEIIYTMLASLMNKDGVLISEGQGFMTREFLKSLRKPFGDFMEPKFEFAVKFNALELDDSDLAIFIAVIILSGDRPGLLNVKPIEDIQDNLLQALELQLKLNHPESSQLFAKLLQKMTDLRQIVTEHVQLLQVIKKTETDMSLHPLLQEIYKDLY
Assay: Cell-based PPARγ transactivation assay
Conditions: compared to the reference full agonist (2, MRL20)
Record form. Attribute: Maximal efficacy. Fill in for each entry.
# value in %; strip the unit string

Problem: Look up Maximal efficacy for this compound: COc1ccc(-c2nn(-c3ccccc3)cc2/C=C2/SC(=S)N(CCC(=O)O)C2=O)c(C)c1 [Compound 3]
Result: 44.41

Problem: Now the same for CC(=O)N1N=C(c2ccccc2)CC1c1cn(Cc2ccccc2)c2ccccc12 (stereo not drawn) [Compound 5]
Result: 44.71

Problem: Lookup COc1ccc2nc(N3C(=O)C(O)=C(C(=O)c4ccco4)C3c3ccc(C)o3)sc2c1 (stereo not drawn) [Compound 7]
Result: 41.14

Problem: CCOc1ccc2nc(N3C(=O)C(O)=C(C(=O)c4ccco4)C3c3ccco3)sc2c1 (stereo not drawn) [Compound 6] ?
Result: 37.04

Problem: Likewise for CCn1cnc2c1c(=O)n(Cc1cccc([N+](=O)[O-])c1)c(=O)n2Cc1ccccc1 [Compound 4] ?
Result: 64.11

Problem: Queued: Cc1ccc2nc(N3C(=O)C(O)=C(C(=O)c4ccc(C)o4)C3c3ccco3)sc2c1 (stereo not drawn) [Compound 8]
Result: 45.76
